Taken from patent US20110038869A1.

- system: T1, full length CD32b2 on transfected IIA1.6 cells (human, UniProt P31994-2 43-291)
- T1 construct: whole, on cells; also called IIA1.6-CD32b2
- T1 sequence (looked up): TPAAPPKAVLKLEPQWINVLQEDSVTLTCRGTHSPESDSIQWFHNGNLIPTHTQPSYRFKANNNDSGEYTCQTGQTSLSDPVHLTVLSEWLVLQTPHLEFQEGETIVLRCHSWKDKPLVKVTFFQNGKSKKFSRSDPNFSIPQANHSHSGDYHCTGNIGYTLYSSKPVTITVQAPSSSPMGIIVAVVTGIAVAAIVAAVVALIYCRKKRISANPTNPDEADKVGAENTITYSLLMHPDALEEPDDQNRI
- protocol.summary: flow cytometry on IIA1.6-CD32b2 cells

binder: Antibody 024 (antibody, V domains shown, also called HuMab 024) VH: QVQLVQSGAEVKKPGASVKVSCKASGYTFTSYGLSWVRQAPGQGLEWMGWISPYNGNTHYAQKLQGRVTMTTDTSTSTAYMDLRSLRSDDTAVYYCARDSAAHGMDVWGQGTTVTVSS VL: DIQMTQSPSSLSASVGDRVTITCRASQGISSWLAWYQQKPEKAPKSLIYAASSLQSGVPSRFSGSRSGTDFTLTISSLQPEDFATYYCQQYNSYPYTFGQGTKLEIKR
EC50: 1.96 nM

binder: Antibody 028 (antibody, V domains shown, List 1 gives no VL for antibody 028; The VL is therefore uncertain; also called HuMab 028) VH: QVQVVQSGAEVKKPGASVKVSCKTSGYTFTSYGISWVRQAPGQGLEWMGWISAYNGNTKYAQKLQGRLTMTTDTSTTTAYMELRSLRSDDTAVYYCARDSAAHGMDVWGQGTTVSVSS VL: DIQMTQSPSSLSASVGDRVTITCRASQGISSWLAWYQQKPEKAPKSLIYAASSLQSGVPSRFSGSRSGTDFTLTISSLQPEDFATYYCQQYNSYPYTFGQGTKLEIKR
EC50: 2.18 nM

binder: Antibody 053 (antibody, human IgG1, V domains shown, Human antibody; also called HuMab 053) VH: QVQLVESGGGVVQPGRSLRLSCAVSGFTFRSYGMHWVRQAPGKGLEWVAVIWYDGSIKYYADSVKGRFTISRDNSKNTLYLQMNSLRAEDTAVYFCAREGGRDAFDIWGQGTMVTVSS VL: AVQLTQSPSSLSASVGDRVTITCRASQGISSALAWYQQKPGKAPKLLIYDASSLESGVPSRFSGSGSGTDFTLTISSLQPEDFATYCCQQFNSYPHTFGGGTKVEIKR
EC50: 1.06 nM

binder: Antibody 038 (antibody, human IgG1, V domains shown, Human antibody; also called HuMab 038) VH: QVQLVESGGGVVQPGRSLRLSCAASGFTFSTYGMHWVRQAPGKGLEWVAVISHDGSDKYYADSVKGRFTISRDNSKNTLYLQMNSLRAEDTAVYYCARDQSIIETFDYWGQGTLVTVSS VL: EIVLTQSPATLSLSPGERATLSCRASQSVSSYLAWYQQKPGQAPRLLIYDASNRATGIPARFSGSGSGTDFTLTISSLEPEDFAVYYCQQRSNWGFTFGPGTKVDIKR
EC50: 0.27 nM
